biological target: T1, IL-1beta (UniProt P01584 117-269); test: Biacore
T1 construct: also called IL-1β

# binder, binding result
data = [
    ("XPA23 Fab, heavy chain R59E (Fab, V domains shown) VH: EVQLLESGGGLVQPGGSLRLSCAASGFTFSKYFMFWVRQAPGKGLEWVSVISPSGGMTEYADSVKGRFTISRDNSKNTLYLQMNSLRAEDTAVYYCARVGYGGNSDYWGQGTLVTVSS VL: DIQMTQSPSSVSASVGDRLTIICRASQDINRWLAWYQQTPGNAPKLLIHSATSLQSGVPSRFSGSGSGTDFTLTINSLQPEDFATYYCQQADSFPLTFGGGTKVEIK", "no binding"),
    ("XPA23 Fab, heavy chain T28K (Fab, V domains shown) VH: EVQLLESGGGLVQPGGSLRLSCAASGFKFSKYFMFWVRQAPGKGLEWVSVISPSGGMTRYADSVKGRFTISRDNSKNTLYLQMNSLRAEDTAVYYCARVGYGGNSDYWGQGTLVTVSS VL: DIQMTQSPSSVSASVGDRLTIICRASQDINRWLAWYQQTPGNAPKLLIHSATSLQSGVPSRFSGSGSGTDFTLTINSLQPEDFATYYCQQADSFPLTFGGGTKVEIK", "no binding"),
    ("XPA23 Fab, heavy chain T28Q (Fab, V domains shown) VH: EVQLLESGGGLVQPGGSLRLSCAASGFQFSKYFMFWVRQAPGKGLEWVSVISPSGGMTRYADSVKGRFTISRDNSKNTLYLQMNSLRAEDTAVYYCARVGYGGNSDYWGQGTLVTVSS VL: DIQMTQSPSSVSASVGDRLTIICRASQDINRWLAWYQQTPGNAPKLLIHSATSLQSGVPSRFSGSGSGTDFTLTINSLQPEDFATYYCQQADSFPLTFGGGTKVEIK", "no binding"),
]
